# assay target: T1, Macaca fascicularis NKp46 expressed on CHO cells (Macaca fascicularis, UniProt Q95JB9 22-306)
# T1 construct: Cloned from Macaca fascicularis cDNA and transfected into the CHO cell line; also called cyno NKp46; CHO-cynoNKp46
# T1 sequence (Q95JB9 22-306 limits assumed): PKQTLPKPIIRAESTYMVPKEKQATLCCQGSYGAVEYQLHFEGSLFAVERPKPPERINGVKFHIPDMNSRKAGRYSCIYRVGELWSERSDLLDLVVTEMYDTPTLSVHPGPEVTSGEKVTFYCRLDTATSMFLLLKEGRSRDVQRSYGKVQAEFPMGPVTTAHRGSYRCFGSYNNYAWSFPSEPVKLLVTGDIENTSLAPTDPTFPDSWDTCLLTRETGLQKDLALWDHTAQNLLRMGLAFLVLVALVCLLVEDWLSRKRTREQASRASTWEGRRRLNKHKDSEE
# experimental protocol: flow cytometry on CHO cells transfected with cyno NKp46, dose range, anti-human IgG1-PE detection
Recorded measurements of EC50, one per entry
The figure you give is taken to be in µg/mL; do not add the unit.

8B6B (antibody, V domains shown, Same heavy chain variable domain as 8B6A with a different light chain; also called CHG1-M-H46 8B6-B) VH: QVQLQQPGSELVRPGASVKLSCKASGYTFTSYWMHWVKQRPGQGLEWIGTIYPGSDITNYDEKFKNKATLTVDTSSSTAYMQLSSLTSEDSAVYYCTRDGRFANWGQGTLVTVSA VL: EIQMTQSPSSLSASLGERVSLTCRASQDIGSSLNWLQQEPDGTIKRLIYATSSLDSGVPKRFSGSRSGSDYSLTISSLESEDFVDYYCLQYASSPYTFGGGTKLEIK
0.028
9H11A (antibody, V domains shown, also called CHG1-M-H46 9H11-A) VH: QVQLQQPGAELVKPGASVKLSCKASGYTFTSYWMHWVKLRPGQGFEWIGEIIPSNGVTNYNEKFKRKATLTVDKSSSTAYMQLSSLTSEDSAVYYCTIRLRYALDYWGQGTSVTVSA VL: DIQMTQTTSSLSASLGDRVTISCRASQDISNFLNWYQQKPDGTVKLLIYYTSRLHSGVPSRFSGSGSGTDYSLTISNLEQEDIATYFCQQGNTLPPTFGGGTKLEIK
0.026
9H11B (antibody, V domains shown, Same heavy chain variable domain as 9H11A with a different light chain; also called CHG1-M-H46 9H11-B) VH: QVQLQQPGAELVKPGASVKLSCKASGYTFTSYWMHWVKLRPGQGFEWIGEIIPSNGVTNYNEKFKRKATLTVDKSSSTAYMQLSSLTSEDSAVYYCTIRLRYALDYWGQGTSVTVSA VL: DIVMTQSQKFMSTSVGDRVSVTCKASQNVGTNVAWYQQKPGQSPKALIYSTSFRYSGVPDRFTGSGSGTDFTLTISNVQSEDLAEYFCQQYNSYPFTFGSGTKLEIK
0.025
17E1 (antibody, V domains shown, also called CHG1-M-H46 17E1) VH: QVQLQQPGSVLVRPGASVKLSCKASGYTFTSSWMHWAKQRPGQGLEWIGHIHPNSGISNYNEKFKGKATLTVDTSSSTAYVDLSSLTSEDSAVYYCSRGGRFDDWGAGTTVTVSS VL: DIQMTQSPSSLSASLGERVSLTCRASQDIGSSLNWLQQEPDGTIKRLIYATSRLDSGVPKRFSGSRSGSDYSLTISSLESEDFVDYYCLQYASSPWTFGGGTKLEIK
0.059

Q: Name the reported EC50 value associated with the binder 8B6A (antibody, V domains shown, Mouse variable domains; light chain is kappa (VK); also called CHG1-M-H46 8B6-A) VH: QVQLQQPGSELVRPGASVKLSCKASGYTFTSYWMHWVKQRPGQGLEWIGTIYPGSDITNYDEKFKNKATLTVDTSSSTAYMQLSSLTSEDSAVYYCTRDGRFANWGQGTLVTVSA VL: EIVLTQSPAITAASLGQKVTITCSASSSVSYMHWYQQKSGTSPKPWIYEISKLASGVPARFSGSGSGTSYSLTISSMEAEDAAIYYCQQWNLPLTFGAGTKLELK
Ans: 0.029
